molecular target: human GLP-1 receptor (Homo sapiens); construct: expressed in transfected cells; host or cells: BHK (Baby Hamster Kidney) cells, clone BHK 467-12A KZ-10, stably transfected, with CRE-luciferase reporter; experiment: Human GLP-1 receptor in vitro potency assay (CRE-luciferase reporter, BHK cells); format: cell-based; details: Table 4a; BHK cells expressing human GLP-1R, CRE-Luc, 3 hours; read-out: Human GLP-1R potency [EC50 (pM)]
Sequence (P43220 24-463): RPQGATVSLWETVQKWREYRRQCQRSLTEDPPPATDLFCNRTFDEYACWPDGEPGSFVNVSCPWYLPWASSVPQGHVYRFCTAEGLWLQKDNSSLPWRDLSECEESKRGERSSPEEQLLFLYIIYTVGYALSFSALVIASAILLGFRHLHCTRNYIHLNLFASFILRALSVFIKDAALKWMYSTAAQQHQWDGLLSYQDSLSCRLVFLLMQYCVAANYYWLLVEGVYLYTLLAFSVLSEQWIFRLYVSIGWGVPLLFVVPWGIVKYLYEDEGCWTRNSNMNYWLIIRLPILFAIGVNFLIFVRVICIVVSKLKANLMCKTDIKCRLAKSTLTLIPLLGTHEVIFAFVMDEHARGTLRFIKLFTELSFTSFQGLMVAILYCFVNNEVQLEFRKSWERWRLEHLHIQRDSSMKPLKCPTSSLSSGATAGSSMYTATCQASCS
Starred links: 1 amine or outer side, 2 acyl side, 3 side chain; linkers in the order of their positions; H or OH if unused. Non-standard residues stand in square brackets, D forms with d. Groups on a side chain read outwards from the residue. *: point of attachment. Butyryl(4-SO2NHCO(CH2)16Tz) = O=C(CCCCCCCCCCCCCCCCc1nnn[nH]1)NS(=O)(=O)CCCC(=O)*; C20 diacid = O=C(O)CCCCCCCCCCCCCCCCCCC(=O)*; C18 diacid = O=C(O)CCCCCCCCCCCCCCCCC(=O)*; C16 diacid = O=C(O)CCCCCCCCCCCCCCC(=O)*; γGlu = O=C(O)[C@H](CCC(=O)[*:2])N[*:1]; Desaminohistidyl = O=C(CCc1c[nH]cn1)*; X2 = O=C(CCCCCCCCCCCCCCCCc1nnn[nH]1)*; εLys = N[C@@H](CCCCN[*:1])C(=O)[*:2]; Trx = NC[C@H]1CC[C@H](C(=O)O)CC1; AEEA = NCCOCCOCC(=O)O; Aib = CC(C)(N)C(=O)O
Lab note: compare EC50 with 10 pM, writing yes (1) if less and no (0) if equal or more.

IN: Determine whether this substance shows EC50 lower than 10 pM (ties excluded): H-H[Aib]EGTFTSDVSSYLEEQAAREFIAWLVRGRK([AEEA-AEEA-γGlu-Trx-C20 diacid])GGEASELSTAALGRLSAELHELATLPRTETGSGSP-NH2 [Compound 0512]
OUT: yes (1)

IN: Please check: EC50 for H-H[Aib]EGTFTSDVSSYLEGQAAREFIAWLVRGRK([AEEA-AEEA-γGlu-C18 diacid])GQEPGQAPEASELSTAALGRLSAELHELATLPRTETGSGSP-NH2 [Compound 0083] , strictly under 10 pM or not?
OUT: yes (1)

IN: Record H-H[Aib]EGTFTSDVSK([γGlu-γGlu-γGlu-γGlu-C16 diacid])YLEEQAARK([γGlu-γGlu-γGlu-γGlu-C16 diacid])FIAWLVRGRGEASELSTAALGRLSAELHELATLPRTETGSGSP-NH2 [Compound 0634] : is its EC50 strictly below 10 pM?
OUT: no (0)

IN: Confirm or reject: EC50 of H-H[Aib]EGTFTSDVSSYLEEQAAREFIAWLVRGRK([AEEA-AEEA-γGlu-X2])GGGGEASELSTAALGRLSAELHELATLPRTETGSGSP-NH2 [Compound 0655] lies strictly below 10 pM
OUT: yes (1)

IN: Item H-H[Aib]EGTFTSDVSSYLEGQAAK([AEEA-AEEA-γGlu-C20 diacid])EFIAWLVRGRGGGGGGGGGEASELSTAALGRLSAELHELATLPRTETGSGSP-NH2 [Compound 0094] : EC50 beneath 10 pM, strictly?
OUT: yes (1)

IN: Lab note: EC50 threshold 10 pM. Does this substance come in strictly under it? H-H[Aib]EGTFTSDVSSYLEGQAAK([εLys-AEEA-AEEA-γGlu-C18 diacid])EFIAWLVRGRGGGEASELSTAALGRLSAELHELATLPRTETGSGSP-NH2 [Compound 0044]
OUT: no (0)

IN: EC50 strictly < 10 pM for this substance? H-H[Aib]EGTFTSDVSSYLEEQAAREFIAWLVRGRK([γGlu-C20 diacid])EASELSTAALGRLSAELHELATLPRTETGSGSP-NH2 [Compound 0141]
OUT: no (0)

IN: API: query returns whether the substance falls strictly under 10 pM in EC50. Query: H-H[Aib]EGTFTSDVSK([AEEA-AEEA-γGlu-C20 diacid])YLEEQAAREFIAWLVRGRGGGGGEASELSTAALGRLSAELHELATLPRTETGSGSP-NH2 [Compound 0565]
OUT: yes (1)

IN: Here's an entry: H-H[Aib]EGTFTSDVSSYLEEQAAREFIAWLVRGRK(Butyryl(4-SO2NHCO(CH2)16Tz))ELSTAALGRLSAELHELATLPRTETGSGSP-NH2 [Compound 0102] . Is its EC50 below 10 pM?
OUT: no (0)

IN: Identify whether the substance H-HAEGTFTSDK([AEEA-AEEA-γGlu-C16 diacid])SSYLEEK([AEEA-AEEA-γGlu-C16 diacid])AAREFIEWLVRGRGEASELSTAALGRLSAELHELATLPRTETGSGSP-NH2 [Compound 0475] records EC50 below 10 pM.
OUT: no (0)

IN: Does the reported EC50 of the following substance sit strictly below 10 pM? Desaminohistidyl-[Aib]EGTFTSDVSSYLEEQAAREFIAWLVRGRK([γGlu-C20 diacid])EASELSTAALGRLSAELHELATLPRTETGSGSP-NH2 [Compound 0142]
OUT: no (0)
